src = a melting point compilation (Tetko et al.; mined from patent text by program, amines drawn as free bases though some values may be those of a salt)

Quantity Measured: melting point

                                   compound  quantity_measured  value_measured
0  CC(C)(C)OC(=O)NNc1ccc(N2C(=O)C=CC2=O)cn1      melting point   182 to 184 °C
1  CCOC(=O)C(Cc1ccc(OCc2ccccc2)cc1)OS(C)(=O)=O (stereo unspecified)      melting point     81 to 83 °C
2  CCc1ccc(OCc2cccc(NC(=O)CCC(=O)OC)c2)cc1OC      melting point     69 to 70 °C

Q: Using the record for C=CC(c1ccccc1)c1cc(C)c2c(c1O)C(=NO)CC2 (stereo unspecified) , report its melting point.
Ans: 146 °C

Q: Now this one: `Cc1cc(O)c(CCN(C)C)c(C)c1C`
Ans: 72 °C

Q: Now this one: c1ccc2c(NC3CCC(Nc4nccc5ccccc45)CC3)nccc2c1 (stereo unspecified)
Ans: 278 to 280 °C

Q: Now this one: CC(C)CC(C(N)=O)N1C(=O)c2ccccc2C1=O (stereo unspecified)
Ans: 173 to 176 °C

Q: Now this one: `CSc1cc(C(=O)O)cc(C(F)(F)F)c1`
Ans: 135 to 140 °C

Q: Now this one: `COc1cccc(NS(=O)(=O)c2ccc(NC3=C(Cl)C(=O)c4ccccc4C3=O)cc2)c1`
Ans: 213 to 216 °C

Q: Now this one: `NN1C(=O)c2ccc(Cl)cc2C1=O`
Ans: 172 to 175 °C

Q: Now this one: `COc1cc(O)c(C(=O)C=Cc2ccccc2)c(OC)c1`
Ans: 85.5 °C

----------
Quantity Measured: melting point

Here's what some known entries look like.
                                   molecule  value_measured
0     CCN(C)c1ccc(C(=O)c2ccc(N(C)CC)cc2)cc1   122 to 124 °C
1  CCn1cc(/C=C/c2cn(-c3ccccc3)nc2OCc2ccc(OCc3nc(-c4ccc(CC(=O)O)cc4)oc3C)c(OC)c2)cn1   146 to 147 °C
2  CCOC1c2ccccc2-c2[nH]c(=O)c(=O)[nH]c21 (stereo not given)        > 300 °C
3  Fc1ccc(-c2[nH]cc(C3CCN4CCCC4C3)c2-c2ccncc2)cc1 (stereo not given)   263 to 265 °C

Q: Using the record for `CC(C)OC(=O)Cn1c(=O)n(C)c(=O)n(-c2cc(N=c3sc(=O)n4n3CCCCC4)c(F)cc2Cl)c1=O` , report its melting point.
Ans: 95 to 106 °C

----------
Parameter melting point: see the listing below.

Here's what some known entries look like.
In [3]: df
Out[3]:
                                   compound  value_measured
0  OC1CSC(Oc2cccnc2-c2cncnc2)C(O)C1O (stereo unspecified)          195 °C
1                    COc1ccc(I)c(CC(=O)O)c1          134 °C
2  CCOc1cc(O[Si](C)(C)C(C)(C)C)c(C)c(C(=O)OCc2ccc([N+](=O)[O-])cc2)c1C     75 to 76 °C
3  Cc1ccc(O)c(Cn2c(NCCCN3CCOCC3)nc3ccc(Cc4c(C)cc(NCCO)cc4C)cc32)n1          162 °C
4                        C=CCn1cc(Cl)cnc1=O   130 to 131 °C

Q: Using the record for `O=C(C1CCCCC1)N1C=C2c3ccccc3CCN2C(=O)C1` , report its melting point.
Ans: 136 to 138 °C

Q: Now this one: CCOC(=O)C1=C(COCC(N)=O)NC(C)=C(C(=O)OC)C1c1ccccc1Cl (stereo unspecified)
Ans: 127 to 128 °C

Q: Now this one: `O=C(NCCCO)c1cccc(-c2cccc(Oc3cc(Cl)cc(Cl)c3)n2)c1`
Ans: 101 to 102 °C

Q: Now this one: CCCCCCCNC(=O)Nc1ccc(N(C)C)cc1C(=O)NCC1CC2CCC(C1)N2C(c1ccccc1)c1ccccc1 (stereo unspecified)
Ans: 195 °C

Q: Now this one: `COC(=O)C(C(=O)OC)c1cccc2c1NC(=O)C2`
Ans: 161 to 162 °C

Q: Now this one: `CC(C)c1ccc(C(=O)c2ccc(N)cc2)cc1`
Ans: 110 °C

Q: Now this one: `Nc1cc(NC(=O)c2ccc(F)c(F)c2)ccc1F`
Ans: 135 to 142 °C

Q: Now this one: `CCCCN=C(O)c1c(Cl)c(Sc2ccccc2)c(Sc2ccccc2)c(Cl)c1C(=O)O`
Ans: 215 to 216 °C

Q: Now this one: `CC(C)Oc1ccc(CCCCOc2cc(CCC(=O)O)n(C)n2)c(Oc2ncc(C(F)(F)F)cc2Cl)c1`
Ans: 156 to 157 °C

Q: Now this one: `O=C(c1ccc(Cl)cc1)c1cc(-c2ccncc2)c(N2CCOCC2)s1`
Ans: 176 °C

Q: Now this one: CC(CF)(CF)C(=O)C(Br)Oc1ccc(Cl)cc1 (stereo unspecified)
Ans: 54 to 57 °C

Q: Now this one: CC1(CO)Cc2c(cc(C(C)(C)C)c(O)c2C(C)(C)C)O1 (stereo unspecified)
Ans: 126 to 128 °C

Q: Now this one: `CS(=O)(=O)c1ccc(-c2nc(C(F)(F)F)sc2-c2ccc(F)cc2)cc1`
Ans: 150 to 151 °C
